- subjectOfTest: human Prostaglandin D Synthase (GST2) (Homo sapiens, UniProt O60760)
- Construct: the open reading frame of human Prostaglandin D Synthase was amplified from cDNA; made in house; host or cells: E. coli TOP10F'
- Sequence (O60760 whole entry): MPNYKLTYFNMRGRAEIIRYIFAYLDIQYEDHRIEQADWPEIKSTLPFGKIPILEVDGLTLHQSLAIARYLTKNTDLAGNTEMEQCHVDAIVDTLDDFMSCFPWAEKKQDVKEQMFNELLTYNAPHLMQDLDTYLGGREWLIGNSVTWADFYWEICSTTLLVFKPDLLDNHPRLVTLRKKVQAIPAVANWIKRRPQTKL
- method: Homogeneous biochemical assay of human Prostaglandin D Synthase (GST2) based on its glutathion-S-transferase activity (GSH conjugation to monochlorobimane, fluorescence)
- experimentalSetup: given beside the compound name in Examples 1 to 167; read-out: Potency Range (GST2 IC50)
assayReadout: IC50

smilesInput: O=C(c1ccccc1)c1ccc(NC(=O)N2CCN(C(=O)c3cccc(F)c3)CC2)cc1
result: 11 to 100 nM
--
smilesInput: COC(=O)c1ccc(NC(=S)N2CCN(C(=O)c3ccccc3)CC2)cc1
result: 11 to 100 nM
--
smilesInput: O=C(Nc1ccc([N+](=O)[O-])cc1)N1CCN(C(=O)c2cc(F)ccc2F)CC1
result: 101 to 1000 nM
--
smilesInput: O=C(O)c1ccc(NC(=O)N2CCN(C(=O)c3cccc(F)c3)CC2)cc1
result: 101 to 1000 nM
--
smilesInput: O=C(Nc1ccc(Br)c(F)c1)N1CCN(C(=O)c2cccc(F)c2)CC1
result: 11 to 100 nM
--
smilesInput: O=C(Nc1cccc(-c2ccncc2)c1)N1CCN(C(=O)c2cccc(F)c2)CC1
result: 101 to 1000 nM
--
smilesInput: Cc1cc(NC(=O)N2CCN(C(=O)c3cccc(F)c3)CC2)no1
result: 101 to 1000 nM
--
smilesInput: NC(=O)c1ccc(NC(=O)N2CCN(C(=O)c3cccc(F)c3)CC2)cc1F
result: 101 to 1000 nM

* * *

- subjectOfTest: human Prostaglandin D Synthase (GST2) (Homo sapiens)
- Construct: the open reading frame of human Prostaglandin D Synthase was amplified from cDNA; made in house; host or cells: E. coli TOP10F'
- method: Homogeneous biochemical assay of human Prostaglandin D Synthase (GST2) based on its glutathion-S-transferase activity (GSH conjugation to monochlorobimane, fluorescence)
- experimentalSetup: Table 1; read-out: GST2 IC50 Range
pIC50: −log10 of the molar value.

molecule: O=C(Nc1cc(Cl)cc(Cl)c1)N1CCN(C(=O)c2ccco2)CC1 [Compound II, reference compound]
pIC50: 6.00 to 7.00

molecule: O=C(Nc1cc(C(F)(F)F)ccc1Cl)N1CCN(C(=O)c2ccco2)CC1 [Compound III, reference compound]
pIC50: 6.00 to 7.00

molecule: O=C(Nc1cc(C(F)(F)F)cc(C(F)(F)F)c1)N1CCN(C(=O)c2ccco2)CC1 [Compound I, reference compound]
pIC50: 6.00 to 7.00

molecule: O=C(c1ccccc1)N1CCN(C(=S)Nc2cc(C(F)(F)F)ccc2Cl)CC1 [Compound XI, reference compound]
pIC50: 7.00 to 7.96

molecule: O=C(Nc1ccc(N2CCN(C(=O)OC3CCOC3)CC2)c(F)c1)N1CCN(C(=O)c2cccc(F)c2)CC1 (racemic) [Compound 59]
pIC50: 7.00 to 7.96

molecule: O=C(c1ccco1)N1CCN(C(=S)Nc2cc(C(F)(F)F)ccc2Cl)CC1 [Compound V, reference compound]
pIC50: 6.00 to 7.00

molecule: O=C(Nc1ccc(C(F)(F)F)cc1)N1CCN(C(=O)c2cccc(F)n2)CC1 [Compound 22]
pIC50: 6.00 to 7.00

molecule: Cn1cnnc1-c1cccc(NC(=O)N2CCN(C(=O)c3cccc(F)c3)CC2)c1 [Compound 76]
pIC50: 7.00 to 7.96

molecule: O=C(c1ccco1)N1CCN(C(=S)Nc2cc(Cl)cc(Cl)c2)CC1 [Compound IV, reference compound]
pIC50: 6.00 to 7.00

molecule: O=C(c1ccccc1)N1CCN(C(=S)Nc2cc(Cl)cc(Cl)c2)CC1 [Compound X, reference compound]
pIC50: 6.00 to 7.00

molecule: O=C(Nc1nc(-c2ccccc2)cs1)N1CCN(C(=O)c2cccc(F)c2)CC1 [Compound 69]
pIC50: 7.00 to 7.96

molecule: O=C(c1ccccc1)N1CCN(C(=S)Nc2ccc(C(F)(F)F)cc2)CC1 [Compound XII, reference compound]
pIC50: 7.00 to 7.96

molecule: Cc1nc(-c2cccc(NC(=O)N3CCN(C(=O)c4cccc(F)c4)CC3)c2)no1 [Compound 30]
pIC50: 7.00 to 7.96

molecule: O=C(c1ccccc1)N1CCN(C(=S)Nc2cc(C(F)(F)F)cc(C(F)(F)F)c2)CC1 [Compound IX, reference compound]
pIC50: 6.00 to 7.00

molecule: O=C(Nc1cc(Cl)cc(Cl)c1)N1CCN(C(=O)c2ccccc2)CC1 [Compound VII, reference compound]
pIC50: 7.00 to 7.96

molecule: O=C(Nc1cc(C(F)(F)F)ccc1Cl)N1CCN(C(=O)c2ccccc2)CC1 [Compound VIII, reference compound]
pIC50: 6.00 to 7.00

* * *

- subjectOfTest: human Prostaglandin D Synthase (GST2) (Homo sapiens)
- Construct: the open reading frame of human Prostaglandin D Synthase was amplified from cDNA; made in house; host or cells: E. coli TOP10F'
- method: Homogeneous biochemical assay of human Prostaglandin D Synthase (GST2) based on its glutathion-S-transferase activity (GSH conjugation to monochlorobimane, fluorescence)
- experimentalSetup: given beside the compound name in Examples 1 to 167; read-out: Potency Range (GST2 IC50)
pIC50: −log10 of the molar value.
Quick list: pIC50 per entry.

compound: CCCCNC(=O)N1CCN(c2ccc(NC(=O)N3CCN(C(=O)c4cccc(F)c4)CC3)cc2F)CC1 [Compound 53]
subjectOfTest: human Prostaglandin D Synthase (GST2) (Homo sapiens)
pIC50: 7.00 to 7.96
//
compound: O=C(Nc1cnc2ccccc2c1)N1CCN(C(=O)c2cccc(F)c2)CC1 [Compound 45]
subjectOfTest: human Prostaglandin D Synthase (GST2) (Homo sapiens)
pIC50: 6.00 to 7.00
//
compound: O=C(Nc1ccc(C(=O)N2CCOCC2)cc1)N1CCN(C(=O)c2cccc(F)c2)CC1 [Compound 101]
subjectOfTest: human Prostaglandin D Synthase (GST2) (Homo sapiens)
pIC50: 6.00 to 7.00
//
compound: CS(=O)(=O)Nc1ccc(NC(=O)N2CCN(C(=O)c3cccc(F)c3)CC2)cc1 [Compound 126]
subjectOfTest: human Prostaglandin D Synthase (GST2) (Homo sapiens)
pIC50: 6.00 to 7.00

* * *

- subjectOfTest: K+ATP channel (Rattus norvegicus, UniProt Q09429)
- Sequence (Q09429 whole entry): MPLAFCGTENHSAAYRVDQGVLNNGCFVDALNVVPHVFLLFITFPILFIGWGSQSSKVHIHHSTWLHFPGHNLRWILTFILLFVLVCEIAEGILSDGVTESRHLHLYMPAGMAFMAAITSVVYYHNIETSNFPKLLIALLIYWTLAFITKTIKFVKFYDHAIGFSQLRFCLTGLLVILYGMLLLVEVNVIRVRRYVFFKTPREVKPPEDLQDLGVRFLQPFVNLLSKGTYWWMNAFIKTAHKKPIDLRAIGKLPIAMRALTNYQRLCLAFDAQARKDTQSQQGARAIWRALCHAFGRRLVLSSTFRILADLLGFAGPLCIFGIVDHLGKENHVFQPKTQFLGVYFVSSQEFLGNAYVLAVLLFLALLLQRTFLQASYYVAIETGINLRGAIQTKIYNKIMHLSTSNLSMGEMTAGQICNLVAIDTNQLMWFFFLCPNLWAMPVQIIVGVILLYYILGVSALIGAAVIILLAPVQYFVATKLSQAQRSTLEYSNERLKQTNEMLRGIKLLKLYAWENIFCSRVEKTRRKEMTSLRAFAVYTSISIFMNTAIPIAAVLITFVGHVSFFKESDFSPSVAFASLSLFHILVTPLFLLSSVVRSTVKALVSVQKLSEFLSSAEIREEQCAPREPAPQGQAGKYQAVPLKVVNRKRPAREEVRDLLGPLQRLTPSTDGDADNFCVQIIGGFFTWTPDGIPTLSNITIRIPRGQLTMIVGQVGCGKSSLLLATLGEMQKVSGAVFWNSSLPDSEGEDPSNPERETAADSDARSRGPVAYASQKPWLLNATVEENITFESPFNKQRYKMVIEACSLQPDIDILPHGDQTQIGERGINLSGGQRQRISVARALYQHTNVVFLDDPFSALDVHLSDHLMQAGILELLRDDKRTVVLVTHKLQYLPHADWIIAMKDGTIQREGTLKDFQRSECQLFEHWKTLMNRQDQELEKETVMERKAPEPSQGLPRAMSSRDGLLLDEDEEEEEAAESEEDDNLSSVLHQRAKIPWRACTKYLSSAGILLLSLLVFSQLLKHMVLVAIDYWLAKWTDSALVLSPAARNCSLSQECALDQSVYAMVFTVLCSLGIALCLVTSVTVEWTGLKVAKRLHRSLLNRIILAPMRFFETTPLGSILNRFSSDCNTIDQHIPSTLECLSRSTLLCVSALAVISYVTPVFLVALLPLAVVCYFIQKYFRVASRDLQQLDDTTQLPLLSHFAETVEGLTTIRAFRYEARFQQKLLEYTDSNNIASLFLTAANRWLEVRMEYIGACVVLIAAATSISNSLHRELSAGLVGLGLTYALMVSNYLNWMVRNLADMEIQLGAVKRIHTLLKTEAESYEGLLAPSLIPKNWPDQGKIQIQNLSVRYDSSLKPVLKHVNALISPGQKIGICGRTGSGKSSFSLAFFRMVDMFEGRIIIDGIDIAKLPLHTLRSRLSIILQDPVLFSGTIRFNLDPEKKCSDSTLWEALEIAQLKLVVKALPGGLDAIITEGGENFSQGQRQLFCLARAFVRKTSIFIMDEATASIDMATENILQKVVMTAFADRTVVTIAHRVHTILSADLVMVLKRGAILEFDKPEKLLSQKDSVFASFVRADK
- Sequence (P70673 whole entry partner): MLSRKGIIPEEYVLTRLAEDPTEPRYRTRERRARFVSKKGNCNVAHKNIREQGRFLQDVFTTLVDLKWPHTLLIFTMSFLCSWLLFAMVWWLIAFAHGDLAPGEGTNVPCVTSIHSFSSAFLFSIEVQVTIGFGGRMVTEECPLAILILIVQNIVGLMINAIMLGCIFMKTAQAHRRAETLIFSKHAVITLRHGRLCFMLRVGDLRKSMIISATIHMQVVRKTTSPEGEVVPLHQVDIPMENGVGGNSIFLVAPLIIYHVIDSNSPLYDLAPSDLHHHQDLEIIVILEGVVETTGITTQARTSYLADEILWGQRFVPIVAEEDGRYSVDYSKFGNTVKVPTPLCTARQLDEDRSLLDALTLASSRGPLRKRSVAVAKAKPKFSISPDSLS
- method: KATP channel receptor binding assay ([3H]glibenclamide)
- experimentalSetup: Table 1; 10 μM compound concentration; [3H]glibenclamide 0.1 nM, rat cerebral cortex; read-out: K^+ATP Channel (% Inhibition of Control Specific Binding)

compound: O=C(c1ccccc1)N1CCN(C(=S)Nc2ccc(C(F)(F)F)cc2)CC1 [Compound XII, reference compound]
inhibition at 10 µM, %: -14

compound: O=C(Nc1ccc(C(F)(F)F)cc1)N1CCN(C(=O)c2cccc(F)n2)CC1
inhibition at 10 µM, %: 1

compound: O=C(c1ccccc1)N1CCN(C(=S)Nc2cc(C(F)(F)F)cc(C(F)(F)F)c2)CC1 [Compound IX, reference compound]
inhibition at 10 µM, %: 10

compound: Cn1cnnc1-c1cccc(NC(=O)N2CCN(C(=O)c3cccc(F)c3)CC2)c1
inhibition at 10 µM, %: 20

compound: O=C(c1ccco1)N1CCN(C(=S)Nc2cc(C(F)(F)F)ccc2Cl)CC1 [Compound V, reference compound]
inhibition at 10 µM, %: -20

compound: O=C(c1ccccc1)N1CCN(C(=S)Nc2cc(Cl)cc(Cl)c2)CC1 [Compound X, reference compound]
inhibition at 10 µM, %: -10

compound: O=C(c1ccco1)N1CCN(C(=S)Nc2cc(C(F)(F)F)cc(C(F)(F)F)c2)CC1
inhibition at 10 µM, %: 4

* * *

Quick list: pIC50 per entry.
- subjectOfTest: human Prostaglandin D Synthase (GST2) (Homo sapiens, UniProt O60760)
- Construct: the open reading frame of human Prostaglandin D Synthase was amplified from cDNA; made in house; host or cells: E. coli TOP10F'
- method: Homogeneous biochemical assay of human Prostaglandin D Synthase (GST2) based on its glutathion-S-transferase activity (GSH conjugation to monochlorobimane, fluorescence)
- experimentalSetup: given beside the compound name in Examples 1 to 167; read-out: Potency Range (GST2 IC50)
- Text: Homogeneous, Biochemical Assay Monitoring the Activity of Human Prostaglandin D Synthase Based on the Glutathion-S-Transferase Activity of the Enzyme Prostaglandin D2 synthesis by Prostaglandin D synthase (GST2) requires transfer of Glutathion (GSH) to the substrate, Prostaglandin H2. […] Therefore, the enzymatic reaction can be monitored by total fluorescence measurement. In brief, the open reading frame of human Prostaglandin D Synthase was amplified from cDNA using the primer pair: […]
pIC50: −log10 of the molar value.

molecule: O=C(Nc1ccc(N2CCOCC2)c(Cl)c1)N1CCN(C(=O)c2cccc(F)c2)CC1 [Compound 38]
pIC50: 7.00 to 7.96
//
molecule: CC(C)c1noc(-c2cc(NC(=O)N3CCN(C(=O)c4cccc(F)c4)CC3)ccc2F)n1 [Compound 163]
pIC50: 7.00 to 7.96
//
molecule: O=C(Nc1cccc(N2CCOCC2)c1)N1CCN(C(=O)c2cccc(F)c2)CC1 [Compound 31]
pIC50: 6.00 to 7.00
//
molecule: Cc1nc(-c2cccc(NC(=O)N3CCN(C(=O)c4cccc(F)c4)CC3)c2)no1 [Compound 30]
pIC50: 7.00 to 7.96
//
molecule: O=C(Nc1cccc(NC(=O)N2CCN(C(=O)c3cccc(F)c3)CC2)c1)c1ccccn1 [Compound 107]
pIC50: 7.00 to 7.96
//
molecule: CC(C)c1noc(-c2ccc(NC(=O)N3CCN(C(=O)c4cccc(F)c4)CC3)cc2)n1 [Compound 142]
pIC50: 6.00 to 7.00
//
molecule: O=C(c1cccc(F)n1)N1CCN(C(=S)Nc2ccc(OC(F)(F)F)cc2)CC1 [Compound 19]
pIC50: 6.00 to 7.00
//
molecule: O=C(Nc1ccc(OC(F)(F)F)cc1)N1CCN(C(=O)c2cccc(F)n2)CC1 [Compound 21]
pIC50: 6.00 to 7.00
//
molecule: N#Cc1cccc(NC(=O)N2CCN(C(=O)c3cccc(F)c3)CC2)c1 [Compound 35]
pIC50: 7.00 to 7.96
//
molecule: O=C(Nc1ccc(Oc2ccccc2)cc1)N1CCN(C(=O)c2cccc(F)c2)CC1 [Compound 26]
pIC50: 7.00 to 7.96
//
molecule: O=C(Nc1ccc(F)c(-c2ncn[nH]2)c1)N1CCN(C(=O)c2cccc(F)c2)CC1 [Compound 161]
pIC50: 6.00 to 7.00
//
molecule: O=C(Nc1nc2ccc(NS(=O)(=O)C3CC3)cc2s1)N1CCN(C(=O)c2cccc(F)c2)CC1 [Compound 137]
pIC50: 7.00 to 7.96
//
molecule: O=C(Nc1ccc(NC(=O)N2CCN(C(=O)c3cccc(F)c3)CC2)cc1)c1cccc[n+]1[O-] [Compound 115]
pIC50: 7.00 to 7.96
//
molecule: O=C(c1ccccc1)N1CCN(C(=S)Nc2cccc3ccccc23)CC1 [Compound 5]
pIC50: 7.00 to 7.96
//
molecule: CC(=O)Nc1ccc2nc(NC(=O)N3CCN(C(=O)c4cccc(F)c4)CC3)sc2c1 [Compound 84]
pIC50: 7.00 to 7.96
//
molecule: COC(=O)c1ccc(NC(=O)N2CCN(C(=O)c3cccc(F)c3)CC2)cc1F [Compound 95]
pIC50: 6.00 to 7.00
//
molecule: O=C(Nc1cccc(NC(=O)N2CCN(C(=O)c3cccc(F)c3)CC2)c1)c1ccc(F)nc1 [Compound 111]
pIC50: 6.00 to 7.00
//
molecule: Cc1ccc(NC(=S)N2CCN(C(=O)c3ccc(F)cc3)CC2)cc1 [Compound 13]
pIC50: 6.00 to 7.00
//
molecule: O=C(c1cccc(F)n1)N1CCN(C(=S)Nc2ccc(Oc3ccccc3)cc2)CC1 [Compound 17]
pIC50: 6.00 to 7.00
//
molecule: O=C(Nc1ccc(N2CCOCC2)c(F)c1)N1CCN(C(=O)c2cc(F)ccc2F)CC1 [Compound 47]
pIC50: 6.00 to 7.00
//
molecule: CC(C)c1noc(-c2cccc(NC(=O)N3CCN(C(=O)c4cccc(F)c4)CC3)c2)n1 [Compound 162]
pIC50: 7.00 to 7.96
//
molecule: O=C(Nc1ccc(NC(=O)N2CCN(C(=O)c3cccc(F)c3)CC2)cc1)c1ccc[n+]([O-])c1 [Compound 116]
pIC50: 7.00 to 7.96
//
molecule: O=C(Nc1ccc(-n2ccnc2)c(F)c1)N1CCN(C(=O)c2cccc(F)c2)CC1 [Compound 144]
pIC50: 6.00 to 7.00
//
molecule: O=C(Nc1ccc(NC(=O)N2CCN(C(=O)c3cccc(F)c3)CC2)cc1)c1ccc(F)cc1 [Compound 120]
pIC50: 7.00 to 7.96
//
molecule: CC(C)NC(=O)N1CCN(c2ccc(NC(=O)N3CCN(C(=O)c4cc(F)ccc4F)CC3)cc2F)CC1 [Compound 55]
pIC50: 6.00 to 7.00
//
molecule: O=C(Nc1ccc(N2CCN(C(=O)OC3CCOC3)CC2)c(F)c1)N1CCN(C(=O)c2cccc(F)c2)CC1 (racemic) [Compound 59]
pIC50: 7.00 to 7.96
//
molecule: O=C(O)c1ccc2nc(NC(=O)N3CCN(C(=O)c4cccc(F)c4)CC3)sc2c1 [Compound 138]
pIC50: 7.00 to 7.96
//
molecule: O=C(Nc1ccc(C(F)(F)F)cc1)N1CCN(C(=O)c2cc(F)ccc2F)CC1 [Compound 148]
pIC50: 6.00 to 7.00
//
molecule: O=C(Nc1cccc(Br)c1)N1CCN(C(=O)c2cccc(F)c2)CC1 [Compound 32]
pIC50: 7.00 to 7.96
//
molecule: O=C(Nc1nc(-c2cccnc2)cs1)N1CCN(C(=O)c2cccc(F)c2)CC1 [Compound 74]
pIC50: 7.00 to 7.96
//
molecule: O=C(Nc1nc2ccc(Br)cc2s1)N1CCN(C(=O)c2cccc(F)c2)CC1 [Compound 68]
pIC50: 8.00 to 9.00
//
molecule: CC(C)(C)C(=O)N1CCN(c2ccc(NC(=O)N3CCN(C(=O)c4cccc(F)c4)CC3)cc2F)CC1 [Compound 56]
pIC50: 7.00 to 7.96
